Listed here are binders together with their documented ELISA signal.
measurement.target: REFACTO® (recombinant factor VIII-like polypeptide consisting of amino acids 1-743 and 1638 through 2332 of human factor VIII) (human) (UniProt P00451)
Sequence (P00451 20-762, chain 1 of 2): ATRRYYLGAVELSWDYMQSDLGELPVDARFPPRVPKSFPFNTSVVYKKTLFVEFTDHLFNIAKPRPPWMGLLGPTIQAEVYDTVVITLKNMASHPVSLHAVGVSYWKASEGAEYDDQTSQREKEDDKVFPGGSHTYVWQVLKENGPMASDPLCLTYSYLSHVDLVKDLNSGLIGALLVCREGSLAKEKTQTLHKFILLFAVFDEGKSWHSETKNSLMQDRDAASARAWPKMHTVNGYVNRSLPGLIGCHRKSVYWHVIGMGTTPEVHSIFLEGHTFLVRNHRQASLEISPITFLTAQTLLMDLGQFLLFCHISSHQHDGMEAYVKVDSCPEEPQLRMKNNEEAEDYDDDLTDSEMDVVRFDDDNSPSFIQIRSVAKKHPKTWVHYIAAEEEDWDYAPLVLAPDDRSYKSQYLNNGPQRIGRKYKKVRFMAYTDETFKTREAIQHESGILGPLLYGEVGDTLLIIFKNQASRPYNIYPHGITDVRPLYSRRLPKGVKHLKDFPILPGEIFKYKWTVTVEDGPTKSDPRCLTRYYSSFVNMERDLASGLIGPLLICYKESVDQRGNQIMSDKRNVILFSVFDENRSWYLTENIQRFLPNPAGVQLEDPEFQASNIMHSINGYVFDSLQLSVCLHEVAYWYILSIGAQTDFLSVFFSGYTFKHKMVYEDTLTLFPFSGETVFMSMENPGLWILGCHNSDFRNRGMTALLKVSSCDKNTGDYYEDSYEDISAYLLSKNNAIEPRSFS
Sequence (P00451 1657-2351, chain 2 of 2): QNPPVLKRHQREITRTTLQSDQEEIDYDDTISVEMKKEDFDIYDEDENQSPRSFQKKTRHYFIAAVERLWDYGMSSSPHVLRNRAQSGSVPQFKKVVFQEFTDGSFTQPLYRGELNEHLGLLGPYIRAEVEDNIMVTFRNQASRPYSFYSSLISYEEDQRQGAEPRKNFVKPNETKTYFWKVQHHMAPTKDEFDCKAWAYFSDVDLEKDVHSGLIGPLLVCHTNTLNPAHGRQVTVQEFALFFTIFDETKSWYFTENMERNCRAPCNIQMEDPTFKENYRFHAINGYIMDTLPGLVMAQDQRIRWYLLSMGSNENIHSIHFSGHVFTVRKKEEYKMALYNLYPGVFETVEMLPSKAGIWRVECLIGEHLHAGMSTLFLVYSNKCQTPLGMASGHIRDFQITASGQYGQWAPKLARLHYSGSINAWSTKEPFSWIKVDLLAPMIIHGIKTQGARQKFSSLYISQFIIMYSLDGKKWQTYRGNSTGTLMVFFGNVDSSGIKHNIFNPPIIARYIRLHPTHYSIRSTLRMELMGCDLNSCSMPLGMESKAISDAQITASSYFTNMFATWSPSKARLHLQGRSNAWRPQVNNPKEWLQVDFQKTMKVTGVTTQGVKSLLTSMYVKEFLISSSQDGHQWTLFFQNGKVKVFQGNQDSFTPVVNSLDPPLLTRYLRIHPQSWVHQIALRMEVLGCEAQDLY
assay.explanation: phage ELISA on the factor VIII target (REFACTO), anti-M13-HRP
State just the number; it will be interpreted in OD630.

Some solved cases for reference:
[[record]]
binder = "FCWVFPFNHCD [TN9 phage isolate 02 (SEQ ID NO: 27)]"
meas_value = 0.4

[[record]]
binder = "FGCSWLFPCPF [TN7 phage isolate A08]"
meas_value = 0.4

[[record]]
binder = "HPCGSWLRPCLH [TN8 phage isolate 10 (C10-TN8)]"
meas_value = 1


Please turn your attention to the following entry.
Task: Name the reported ELISA signal value associated with the binder HPCGAWFNPCPR [TN8 phage isolate 01 (SEQ ID NO: 19)]
Result: 0.2
